System: TTR
procedureSummary: TTR editing in primary human hepatocytes treated with LNP formulated Spy Cas9 mRNA (SEQ ID NO: 2) and sgRNAs, 12.5 ng mRNA
Assay type: cell-based
conditionsUsed: LNP formulated Spy Cas9 mRNA (SEQ ID NO: 2) and sgRNA, 12.5 ng mRNA, 3.9 nM sgRNA, 72 hours
Procedure: Primary liver hepatocytes. Primary human liver hepatocytes (PHH) and primary cynomolgus liver hepatocytes (PCH) (Gibco) were cultured per the manufacturer's protocol (Invitrogen, protocol 11.28.2012). […] Cells were counted and plated on Bio-coat collagen I coated 96-well plates (ThermoFisher, Cat. 877272) at a density of 33,000 cells/well for human or 60,000 cells/well for cyno (or 65,000 cells/well when assaying effects on TTR protein, described further below). […]
Strand notation (5' to 3'): a small letter for the sugar, then the base; units joined by * are phosphorothioate-linked, units joined directly phosphodiester-linked; [ ] holds rarer units or linkages, { } end groups; capitals alone tell only the bases. m = 2'-O-methyl; r = 2'-OH (RNA)
measuredParameter: 12.5 ng mRNA, 3.9 nM sgRNA, Avg % Edit (%)
Give the number; % is assumed, so skip it.

{"molecule": "G000483: TTR sgRNA modified sequence, Human, SEQ ID NO: 90; guide sequence of CR005298 (nucleic acid) guide: mU*mC*mC*rArCrUrCrArUrUrCrUrUrGrGrCrArGrGrArGrUrUrUrUrArGrAmGmCmUmAmGmAmAmAmUmAmGmCrArArGrUrUrArArArArUrArArGrGrCrUrArGrUrCrCrGrUrUrArUrCrAmAmCmUmUmGmAmAmAmAmAmGmUmGmGmCmAmCmCmGmAmGmUmCmGmGmUmGmCmU*mU*mU*mU", "valueUnits": "%", "12.5 ng mRNA, 3.9 nM sgRNA, Avg % Edit": 7.37}

Request: Which 12.5 ng mRNA, 3.9 nM sgRNA, Avg % Edit is reported for this molecule? G000500: TTR sgRNA modified sequence, Human, SEQ ID NO: 107; guide sequence of CR003337 (nucleic acid) guide: mC*mC*mA*rGrUrCrCrArGrCrArArGrGrCrArGrArGrGrGrUrUrUrUrArGrAmGmCmUmAmGmAmAmAmUmAmGmCrArArGrUrUrArArArArUrArArGrGrCrUrArGrUrCrCrGrUrUrArUrCrAmAmCmUmUmGmAmAmAmAmAmGmUmGmGmCmAmCmCmGmAmGmUmCmGmGmUmGmCmU*mU*mU*mU
Response: 23.57

Request: # query: 12.5 ng mRNA, 3.9 nM sgRNA, Avg % Edit of entry G000497: TTR sgRNA modified sequence, Human, SEQ ID NO: 104; guide sequence of CR003335 (nucleic acid) guide: mC*mU*mG*rCrUrCrCrUrCrCrUrCrUrGrCrCrUrUrGrCrGrUrUrUrUrArGrAmGmCmUmAmGmAmAmAmUmAmGmCrArArGrUrUrArArArArUrArArGrGrCrUrArGrUrCrCrGrUrUrArUrCrAmAmCmUmUmGmAmAmAmAmAmGmUmGmGmCmAmCmCmGmAmGmUmCmGmGmUmGmCmU*mU*mU*mU
Response: 15.10

Request: 12.5 ng mRNA, 3.9 nM sgRNA, Avg % Edit lookup needed for G000494: TTR sgRNA modified sequence, Human, SEQ ID NO: 101; guide sequence of CR003360 (nucleic acid) guide: mG*mU*mG*rArGrUrCrUrGrGrArGrArGrCrUrGrCrArUrGrUrUrUrUrArGrAmGmCmUmAmGmAmAmAmUmAmGmCrArArGrUrUrArArArArUrArArGrGrCrUrArGrUrCrCrGrUrUrArUrCrAmAmCmUmUmGmAmAmAmAmAmGmUmGmGmCmAmCmCmGmAmGmUmCmGmGmUmGmCmU*mU*mU*mU , thanks.
Response: 6.37

Request: Quick check: 12.5 ng mRNA, 3.9 nM sgRNA, Avg % Edit of G000496: TTR sgRNA modified sequence, Human, SEQ ID NO: 103; guide sequence of CR005304 (nucleic acid) guide: mG*mG*mC*rCrGrUrGrCrArUrGrUrGrUrUrCrArGrArArGrUrUrUrUrArGrAmGmCmUmAmGmAmAmAmUmAmGmCrArArGrUrUrArArArArUrArArGrGrCrUrArGrUrCrCrGrUrUrArUrCrAmAmCmUmUmGmAmAmAmAmAmGmUmGmGmCmAmCmCmGmAmGmUmCmGmGmUmGmCmU*mU*mU*mU ?
Response: 30.73

Request: Form field: reported 12.5 ng mRNA, 3.9 nM sgRNA, Avg % Edit of G000485: TTR sgRNA modified sequence, Human, SEQ ID NO: 92; guide sequence of CR003336 (nucleic acid) guide: mC*mC*mU*rCrCrUrCrUrGrCrCrUrUrGrCrUrGrGrArCrGrUrUrUrUrArGrAmGmCmUmAmGmAmAmAmUmAmGmCrArArGrUrUrArArArArUrArArGrGrCrUrArGrUrCrCrGrUrUrArUrCrAmAmCmUmUmGmAmAmAmAmAmGmUmGmGmCmAmCmCmGmAmGmUmCmGmGmUmGmCmU*mU*mU*mU
Response: 14.23

Request: Any idea what its 12.5 ng mRNA, 3.9 nM sgRNA, Avg % Edit is? The molecule is G000488: TTR sgRNA modified sequence, Human, SEQ ID NO: 95; guide sequence of CR003346 (nucleic acid) guide: mA*mA*mA*rGrUrUrCrUrArGrArUrGrCrUrGrUrCrCrGrGrUrUrUrUrArGrAmGmCmUmAmGmAmAmAmUmAmGmCrArArGrUrUrArArArArUrArArGrGrCrUrArGrUrCrCrGrUrUrArUrCrAmAmCmUmUmGmAmAmAmAmAmGmUmGmGmCmAmCmCmGmAmGmUmCmGmGmUmGmCmU*mU*mU*mU
Response: 44.80

Request: Would you kindly share the measured 12.5 ng mRNA, 3.9 nM sgRNA, Avg % Edit for G000487: TTR sgRNA modified sequence, Human, SEQ ID NO: 94; guide sequence of CR003357 (nucleic acid) guide: mU*mU*mC*rUrUrUrGrGrCrArArCrUrUrArCrCrCrArGrGrUrUrUrUrArGrAmGmCmUmAmGmAmAmAmUmAmGmCrArArGrUrUrArArArArUrArArGrGrCrUrArGrUrCrCrGrUrUrArUrCrAmAmCmUmUmGmAmAmAmAmAmGmUmGmGmCmAmCmCmGmAmGmUmCmGmGmUmGmCmU*mU*mU*mU ?
Response: 17.37

Request: Any idea what its 12.5 ng mRNA, 3.9 nM sgRNA, Avg % Edit is? The molecule is G000490: TTR sgRNA modified sequence, Human, SEQ ID NO: 97; guide sequence of CR003366 (nucleic acid) guide: mA*mA*mA*rUrArGrArCrArCrCrArArArUrCrUrUrArCrGrUrUrUrUrArGrAmGmCmUmAmGmAmAmAmUmAmGmCrArArGrUrUrArArArArUrArArGrGrCrUrArGrUrCrCrGrUrUrArUrCrAmAmCmUmUmGmAmAmAmAmAmGmUmGmGmCmAmCmCmGmAmGmUmCmGmGmUmGmCmU*mU*mU*mU
Response: 10.53

Request: Which measured 12.5 ng mRNA, 3.9 nM sgRNA, Avg % Edit value corresponds to G000482: TTR sgRNA modified sequence, Human, SEQ ID NO: 89; guide sequence of CR003365 (nucleic acid) guide: mU*mG*mU*rArGrArArGrGrGrArUrArUrArCrArArArGrGrUrUrUrUrArGrAmGmCmUmAmGmAmAmAmUmAmGmCrArArGrUrUrArArArArUrArArGrGrCrUrArGrUrCrCrGrUrUrArUrCrAmAmCmUmUmGmAmAmAmAmAmGmUmGmGmCmAmCmCmGmAmGmUmCmGmGmUmGmCmU*mU*mU*mU ?
Response: 19.10

Request: Consider the molecule G000570: TTR sgRNA modified sequence, Human, SEQ ID NO: 111; guide sequence of CR003347 (nucleic acid) guide: mC*mA*mU*rUrGrArUrGrGrCrArGrGrArCrUrGrCrCrUrGrUrUrUrUrArGrAmGmCmUmAmGmAmAmAmUmAmGmCrArArGrUrUrArArArArUrArArGrGrCrUrArGrUrCrCrGrUrUrArUrCrAmAmCmUmUmGmAmAmAmAmAmGmUmGmGmCmAmCmCmGmAmGmUmCmGmGmUmGmCmU*mU*mU*mU and give its measured 12.5 ng mRNA, 3.9 nM sgRNA, Avg % Edit.
Response: 88.30
